The reported measurements were obtained from patent US20170000749A1.

Reported IC50 values for the following compounds.
System: HDAC activity in primary mouse cortical cultures
Assay: Whole-Cell Histone Deacetylase (HDAC) Inhibition Assay in Primary Mouse Cortical Cultures
Assay type: cell-based
Conditions: whole-cell (WC), mouse cortical neurons; Table 10; read-out: HDAC Inhibition (IC50 μM) WC mouse cortical neurons

Below, each entry is followed by its recorded IC50 result.
input.smiles | assay.system | IC50
O=C(/C=C/c1ccc(CN2C(=O)c3cccnc3N(C3CC3)c3ccccc32)cc1)NO | HDAC activity in primary mouse cortical cultures | < 1 µM
O=C(CCCCCCN1c2ccccc2C=Cc2ccccc21)NO | HDAC activity in primary mouse cortical cultures | 1 to 5 µM
O=C(NO)c1ccc(OCCN2C(=O)c3ccccc3Oc3cc(Cl)ccc32)cc1 | HDAC activity in primary mouse cortical cultures | 1 to 5 µM
O=C(CCCCCN1c2ccccc2CCc2ccccc21)NO | HDAC activity in primary mouse cortical cultures | 1 to 5 µM
O=C(NO)c1ccc(NC2c3ccccc3CCc3ccccc32)nc1 | HDAC activity in primary mouse cortical cultures | < 1 µM
O=C(CCCCCN1c2ccccc2C=Cc2ccccc21)NO | HDAC activity in primary mouse cortical cultures | 1 to 5 µM

For the record "O=C(CCCCCCN1c2ccccc2Oc2ccccc2S1(=O)=O)NO" , what value of IC50 is listed for HDAC activity in primary mouse cortical cultures?
1 to 5 µM

For the record "O=C(CCn1cc(CN2C(=O)c3ccccc3Oc3ccccc32)nn1)NO" , what value of IC50 is listed for HDAC activity in primary mouse cortical cultures?
1 to 5 µM

For the record "O=C(CCCCCCN1C(=O)c2ccccc2Oc2ccccc21)NO" , what value of IC50 is listed for HDAC activity in primary mouse cortical cultures?
< 1 µM

For the record "O=C(CCCCON=C1c2ccccc2CCc2ccccc21)NO" , what value of IC50 is listed for HDAC activity in primary mouse cortical cultures?
5 to 15 µM

For the record "O=C(CCCCCON=C1c2ccccc2CCc2ccccc21)NO" , what value of IC50 is listed for HDAC activity in primary mouse cortical cultures?
5 to 15 µM

For the record "O=C(NO)c1ccc(OCCN2C(=O)c3ccncc3Oc3ccccc32)cc1" , what value of IC50 is listed for HDAC activity in primary mouse cortical cultures?
< 1 µM

For the record "O=C(NO)c1cnc(C2c3ccccc3C=Cc3ccccc32)nc1" , what value of IC50 is listed for HDAC activity in primary mouse cortical cultures?
> 15 µM

* * *

Reported IC50 values for the following molecules.
System: HDAC activity in primary mouse cortical cultures
Experiment: Whole-Cell Histone Deacetylase (HDAC) Inhibition Assay in Primary Mouse Cortical Cultures
Assay type: cell-based
Details: whole-cell (WC), mouse cortical neurons; Table 8; read-out: HDAC Inhibition (IC50 μM) WC mouse cortical neurons
Description: Primary neocortical cultures are established through the dissection of the neocortex from E17 embryos harvested from time-pregnant Balb/C mice. […] The cell-density is quantified using a hemacytometer, and dilutions are made to allow for the plating of 50000 cells/well/100 uL in 96-well PDL-coated plates. […]

molecule | IC50
O=C(NO)c1ccc(C2=Nc3ccccc3N(CCCN3CCOCC3)c3ncccc32)cc1 | 1 to 5 µM

Can you look up the measured IC50 of "Cc1cccc2c1Oc1ccccc1C(c1ccc(C(=O)NO)cc1)=N2" for me?
5 to 15 µM

Can you look up the measured IC50 of "COc1ccc2c(c1)Oc1ccccc1N=C2c1ccc(C(=O)NO)cc1" for me?
1 to 5 µM

Can you look up the measured IC50 of "O=C(NO)c1cccc(C2=Nc3ccccc3Oc3ccccc32)c1" for me?
> 15 µM

Can you look up the measured IC50 of "O=C(NO)c1ccc(C2=Nc3ccccc3Oc3cc(N4CCOCC4)ccc32)cc1" for me?
5 to 15 µM

Can you look up the measured IC50 of "O=C(NO)c1ccc(C2=Nc3ccc(C(F)(F)F)nc3Oc3ccccc32)cc1" for me?
5 to 15 µM

Can you look up the measured IC50 of "Cc1ccc2c(c1)N=C(c1ccc(C(=O)NO)cc1)c1ccccc1O2" for me?
1 to 5 µM

Can you look up the measured IC50 of "O=C(NO)c1ccc(C2=Nc3c(F)cccc3Oc3ccccc32)cc1" for me?
1 to 5 µM

Can you look up the measured IC50 of O=C(NO)c1ccc(C2=Nc3ccccc3[S+]([O-])c3ccccc32)cc1 (stereo not shown) for me?
1 to 5 µM

Can you look up the measured IC50 of "O=C(NO)c1ccc(C2=Nc3ccccc3Oc3ccc(F)cc32)cc1" for me?
1 to 5 µM

* * *

Reported IC50 values for the following molecules.
Molecular target: one or more of HDAC-1, HDAC-2, HDAC-3, HDAC-4, HDAC-5, HDAC-6, HDAC-7, HDAC-8, HDAC-9, HDAC-10 and HDAC-11
Test: Inhibition of Histone Deacetylase Enzymatic Activity (Boc-Lys(Ac)-AMC substrate, Fluor-de-Lys developer)
Assay type: biochemical
Conditions: Table 10; read-out: HDAC Inhibition (IC50 μM) HDAC Enzyme

Below, each entry is followed by its recorded IC50 result.
input.smiles | data.value
O=C(/C=C/c1ccc2c(c1)NC(=O)CN=C2c1ccccc1)NO | 0.05 to 0.1 µM
O=C(NO)c1ccc(CN2c3ccccc3CCc3ccccc32)cc1 | < 0.05 µM
O=C(NO)c1ccc(ON=C2c3ccccc3CCc3ccccc32)cc1 | 0.1 to 1 µM
O=C(CCCCCCN1Cc2ccccc2Oc2ccccc21)NO | 0.1 to 1 µM
O=C(NO)c1cnc(ON=C(c2ccccc2)c2ccccc2)nc1 | 1 to 10 µM

Can you look up the measured IC50 of "O=C(CCCCCN1C(=O)c2ccccc2N(C2CC2)c2ccccc21)NO" for me?
0.1 to 1 µM

* * *

System: HDAC activity in primary mouse cortical cultures
Assay: Whole-Cell Histone Deacetylase (HDAC) Inhibition Assay in Primary Mouse Cortical Cultures
Format: cell-based
Details: whole-cell (WC), mouse cortical neurons; Table 8; read-out: HDAC Inhibition (IC50 μM) WC mouse cortical neurons
result.type: IC50

Below, each entry is followed by its recorded IC50 result.
input.smiles | assay.system | IC50
O=C(NO)c1ccc(C2=Nc3ccsc3Oc3ccccc32)cc1 | HDAC activity in primary mouse cortical cultures | 1 to 5 µM
CC(C)N1c2ccccc2N=C(c2ccc(C(=O)NO)cc2)c2ccccc21 | HDAC activity in primary mouse cortical cultures | < 1 µM
O=C(NO)c1ccc(C2=Nc3ccccc3Cn3cccc32)cc1 | HDAC activity in primary mouse cortical cultures | 1 to 5 µM
COc1cccc2c1C(c1ccc(C(=O)NO)cc1)=Nc1ccccc1O2 | HDAC activity in primary mouse cortical cultures | > 15 µM
N#Cc1ccc2c(c1)N=C(c1ccc(C(=O)NO)cc1)c1ccccc1O2 | HDAC activity in primary mouse cortical cultures | 1 to 5 µM

Can you look up the measured IC50 of "O=C(NO)c1ccc(C2=Nc3ccccc3Oc3c(O)cccc32)cc1" for me?
< 1 µM

Can you look up the measured IC50 of "COCCN1c2ccccc2N=C(c2ccc(C(=O)NO)cc2)c2ccccc21" for me?
1 to 5 µM

Can you look up the measured IC50 of "Cc1cccc2c1Oc1ccccc1N=C2c1ccc(C(=O)NO)cc1" for me?
1 to 5 µM

Can you look up the measured IC50 of "O=C(NO)c1ccc(C2=Nc3ccccc3N(CCN3CCOCC3)c3ncccc32)cc1" for me?
1 to 5 µM

Can you look up the measured IC50 of "O=C(NO)c1ccc(C2=Nc3ccccc3Oc3ccccc32)nc1" for me?
5 to 15 µM

* * *

Test system: HDAC activity in primary mouse cortical cultures
Assay: Whole-Cell Histone Deacetylase (HDAC) Inhibition Assay in Primary Mouse Cortical Cultures
Type: cell-based
Conditions: whole-cell (WC), mouse cortical neurons; Table 10; read-out: HDAC Inhibition (IC50 μM) WC mouse cortical neurons
result.type: IC50

input.smiles | assay.system | data.value
O=C(NO)c1ccc(ON=C2c3ccccc3CCc3ccccc32)cc1 | HDAC activity in primary mouse cortical cultures | 5 to 15 µM
O=C(NO)c1ccc(Cn2c(=O)c3ccccc3c3ccccc32)cc1 | HDAC activity in primary mouse cortical cultures | < 1 µM
O=C(NO)c1cnc(NC(c2ccccn2)c2ccccn2)nc1 | HDAC activity in primary mouse cortical cultures | < 1 µM
O=C(NO)c1cnc(NC2c3ccccc3-c3ccccc32)nc1 | HDAC activity in primary mouse cortical cultures | 5 to 15 µM
O=C(CCCCCC(=O)N1c2ccccc2C=Cc2ccccc21)NO | HDAC activity in primary mouse cortical cultures | < 1 µM
O=C(NO)c1ccc(CNC2c3ccccc3CCc3ccccc32)cc1 | HDAC activity in primary mouse cortical cultures | 5 to 15 µM

Can you look up the measured IC50 of "CN(c1ncc(C(=O)NO)cn1)C1c2ccccc2CCc2ccccc21" for me?
1 to 5 µM

Can you look up the measured IC50 of "O=C(NO)c1ccc(OCC(=O)N2Cc3ccccc3Oc3ccccc32)cc1" for me?
1 to 5 µM

Can you look up the measured IC50 of "O=C(NO)c1cnc(N2CCCN(c3ncc(C(F)(F)F)cc3Cl)CC2)nc1" for me?
5 to 15 µM

Can you look up the measured IC50 of "O=C(CCCCCN1C(=O)c2ccccc2Oc2ccccc21)NO" for me?
< 1 µM

Can you look up the measured IC50 of "O=C(CCCCN1c2ccccc2C=Cc2ccccc21)NO" for me?
5 to 15 µM

Can you look up the measured IC50 of "O=C(/C=C/c1ccc(CN2c3ccccc3C=Cc3ccccc32)cc1)NO" for me?
1 to 5 µM

Can you look up the measured IC50 of "O=C(Cc1ccc(CN2C(=O)c3ccccc3Oc3ccccc32)cc1)NO" for me?
1 to 5 µM

Can you look up the measured IC50 of "O=C(CCCCCC(=O)NC1c2ccccc2C=Cc2ccccc21)NO" for me?
1 to 5 µM

Can you look up the measured IC50 of "O=C(CCCCCCCON=C1c2ccccc2CCc2ccccc21)NO" for me?
1 to 5 µM
